target desc: human MASP-2 (in normal human serum) (human, UniProt O00187 16-686)
Sequence (O00187 16-686 limits assumed): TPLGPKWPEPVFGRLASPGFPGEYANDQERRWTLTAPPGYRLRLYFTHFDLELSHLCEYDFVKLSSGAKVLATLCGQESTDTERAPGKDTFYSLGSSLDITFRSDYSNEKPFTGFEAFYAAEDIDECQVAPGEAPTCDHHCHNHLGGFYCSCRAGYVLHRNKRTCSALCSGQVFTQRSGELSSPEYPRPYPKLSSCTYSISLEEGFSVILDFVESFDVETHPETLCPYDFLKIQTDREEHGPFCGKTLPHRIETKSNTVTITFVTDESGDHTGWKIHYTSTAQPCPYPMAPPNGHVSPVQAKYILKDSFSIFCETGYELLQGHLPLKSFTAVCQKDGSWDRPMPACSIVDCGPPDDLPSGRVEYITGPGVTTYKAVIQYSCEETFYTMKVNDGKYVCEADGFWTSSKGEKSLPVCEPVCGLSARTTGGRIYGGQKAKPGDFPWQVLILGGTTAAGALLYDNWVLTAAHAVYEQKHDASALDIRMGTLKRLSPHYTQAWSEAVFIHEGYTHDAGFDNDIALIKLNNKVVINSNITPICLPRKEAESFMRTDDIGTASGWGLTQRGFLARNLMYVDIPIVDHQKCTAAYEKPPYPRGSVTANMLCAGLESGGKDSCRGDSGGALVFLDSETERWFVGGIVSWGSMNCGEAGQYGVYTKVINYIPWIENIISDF
experiment summary: cell-based or functional assay
Where no end group is shown, it is not given here.
reported metric: IC50, lectin pathway C4 deposition, human serum (nM)
Entry rule: numbers only, all in nM.

binder | units label | observed measurement
EVO21d (designed binder, not fully specified; cysteine pairing not given here) KPDFCFLEEDPGPCRALKRRYFYNNQTKQCERFSYGGCFGNMNNFVTLEECKNICEDG | nM | 8.3

Reported IC50, lectin pathway C4 deposition, human serum for EVO214 (designed binder, not fully specified; ends and bridges not checked, Modified TFPI-D2 Kunitz domain; made as m1) KPDFCFLENDPGPCRALKLRYFYNNQTKQCERFGYGGCLGNMNNFVTLEECKNICEDG : what is it?
4.3
